The reported measurements were obtained from PubChem BioAssay.

target: Potassium voltage-gated channel subfamily KQT member 2 (Rattus norvegicus); experiment: rat KCNQ2 channel potentiation, selectivity assay for KCNQ1 potentiator project, KCNQ2-CHO-K1 cells (AID 493009); settings: FluxOR thallium flux fluorescence, at 10 µM; active compounds read high, scaled: buffer 0, activator control 100;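 note: assay conditions were tuned for KCNQ1 rather than KCNQ2 modulators; signal is max minus min fluorescence divided by baseline after thallium stimulus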
The source made the active and inactive calls.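 Rule for the calls: active = mean duplicate potentiation above the buffer control mean plus 5 SD of buffer wells; inactive = the rest.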
OUTCOME_MEASURE: potentiation

Reference set (4 entries):
# MOLECULE, ASSAY_VALUE
rows = [
    ("C=CCn1c(O)c(N=NC(=S)Nc2cccc(OC)c2)c2ccccc21", "271% (active)"),
    ("COc1ccccc1C(=O)NNC(=O)C(=O)NC(C)(C)C", "246% (active)"),
    ("CCCc1c(C)[nH]c2ccc(NC(C)=O)cc2c1=O", "inactive"),
    ("CCC(C)NC(=O)Cn1c(-c2ccccc2)cc(C(C)=O)c1C (stereo unspecified)", "inactive"),
]

Given COc1ccccc1-n1cnc2cc(NCc3ccco3)ccc21 , respond with its potentiation.
inactive

# return recorded potentiation for input CCCn1c(SCC(=O)Nc2ccccc2C(=O)OC)nc2c1c(=O)n(C)c(=O)n2C
inactive
